Where do these numbers come from? They come from PubChem BioAssay AID463098.

Target: Glutathione S-transferase omega-1 (Homo sapiens)
Test: endogenous GSTO1 inhibitors in proteome, late-stage follow-up, cell lysate, MDA-MB-435 proteome, gel ABPP, SE-Rh, percent inhibition (AID 463098)
Settings: gel ABPP SE-Rh fluorescence, at 1 µM, active compounds read high
Provide the reported inhibition of each item.
One number for each entry, in %.

{"molecule": "Cc1nn(-c2ccc(Cl)cc2)c2[nH]c(CCl)cc(=O)c12", "resultUnits": "%", "testValue": 26}
{"molecule": "Cc1nn(-c2ccccc2)c(Cl)c1CN(C(=O)CCl)c1ccc(Cl)cc1", "resultUnits": "%", "testValue": 93}
{"molecule": "CC(=O)n1cc(N(C(=O)CCl)c2ccc(C)cc2)c2ccccc21", "resultUnits": "%", "testValue": 70}
{"molecule": "COc1ccccc1NS(=O)(=O)c1ccc2nc(CCl)[nH]c2c1", "resultUnits": "%", "testValue": 88}
{"molecule": "CCCCCCN(C(=O)CCl)c1ccccc1", "resultUnits": "%", "testValue": 43}

List the reported inhibition of each molecule below.
1. CCC(C)N(CC(=O)Nc1cccc(C)c1C)C(=O)CCl (stereo unspecified)
2. O=Cc1[nH]c2ccccc2c1N(C(=O)CCl)c1ccc([N+](=O)[O-])cc1
3. CC1CCc2c(sc3nc(C(C)(C)C)nc(N4CCN(C(=O)CCl)CC4)c23)C1 (stereo unspecified)
4. CN(Cc1ccc(Cl)cc1)C(=O)CCl

Result string:
1. 26
2. 75
3. 48
4. 18

Need inhibition for each of these molecules.
1. CCCCCCCN(C(=O)CCl)c1ccccc1C
2. COCCN(C(=O)CCl)C(C(=O)NC1CCCCC1)c1ccccc1C (stereo unspecified)

Result string:
1. 51
2. 25
